# details: human gut metagenome, 24 h, 2 µM; also: call rule not given here
reported metric: Bacterial Biotransformation

Examples with answers:
Cc1ccccc1N1C(=O)c2cc(S(N)(=O)=O)c(Cl)cc2NC1C (stereo unspecified)
Compound NOT metabolized
C=CCN1CC[C@]23c4c5ccc(O)c4O[C@H]2C(=O)CC[C@@]3(O)[C@H]1C5
Compound NOT metabolized
Cc1ccc(S(=O)(=O)NC(=O)NN2CC3CCCC3C2)cc1 (stereo unspecified) [GLICLAZIDE]
Compound metabolized
COc1ccc(CCN(C)CCCC(C#N)(c2ccc(OC)c(OC)c2)C(C)C)cc1OC (stereo unspecified)
Compound metabolized
CCN(CC)CCOC(=O)C(Cc1cccc2ccccc12)CC1CCCO1.O=C(O)C(=O)O (stereo unspecified) [NAFRONYL OXALATE]
Compound metabolized

Query: Which Bacterial Biotransformation is reported for this compound? CN1CCOC(c2ccccc2)c2ccccc2C1 (stereo unspecified)
Response: Compound metabolized

Query: Which Bacterial Biotransformation is reported for this compound? `CCc1nn(CCCN2CCN(c3cccc(Cl)c3)CC2)c(=O)n1CCOc1ccccc1`
Response: Compound metabolized

Query: Which Bacterial Biotransformation is reported for this compound? `CCc1nc(N)nc(N)c1-c1ccc(Cl)cc1`
Response: Compound NOT metabolized

Query: Which Bacterial Biotransformation is reported for this compound? CN1C(=O)CCS(=O)(=O)C1c1ccc(Cl)cc1 (stereo unspecified)
Response: Compound NOT metabolized

Query: Which Bacterial Biotransformation is reported for this compound? CC(O)(CS(=O)(=O)c1ccc(F)cc1)C(=O)Nc1ccc(C#N)c(C(F)(F)F)c1 (stereo unspecified) [BICALUTAMIDE]
Response: Compound NOT metabolized

Query: Which Bacterial Biotransformation is reported for this compound? CN(C)C(=O)C(CCN1CCC(O)(c2ccc(Cl)cc2)CC1)(c1ccccc1)c1ccccc1 [LOPERAMIDE]
Response: Compound metabolized
